- protocol.text: SK-BR-3 cell growth inhibitors, pilot screen, 24 h, human (AID 572);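 also: compound exposure lasted between 18 and 24 h rather than exactly 24 h; 100% = carrier-treated control wells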
- stated.conditions: SK-BR-3 viability, CellTiter-Glo luminescence, at 10 µM, active compounds read low
attribute.measured: viability (%)
Field format: number, assumed %, no unit text.

Q: Complete the entry with viability for c1ccc2oc(SCc3cn4ccccc4n3)nc2c1
Result: 91

Q: Complete the entry with viability for CCc1n[nH]c2c1C(=O)CC(C)(C)C2
Result: 73

Q: Complete the entry with viability for COCCNC(=O)C(c1cccs1)N(C(=O)Cn1nnc2ccccc21)c1ccccc1 (centres undefined)
Result: 97

Q: Complete the entry with viability for Cc1cccc(NC(=O)C2CCCN2C(=O)OCC(C)C)c1C (centres undefined)
Result: 96

Q: Complete the entry with viability for Cc1nc2ccc(C(=O)O)cc2c2c1CC(C)S2 (centres undefined)
Result: 93

Q: Complete the entry with viability for CC1CCc2nc(NC(=O)CN3CCN(Cc4ccc5c(c4)OCO5)CC3)sc2C1 (centres undefined)
Result: 90.5

Q: Complete the entry with viability for CC(=O)c1c(C)nn(C(C)CC(=O)O)c1C (centres undefined)
Result: 113

Q: Complete the entry with viability for COc1cc2cc(C(c3nnnn3C3CCCC3)N3CCCCCC3)c(=O)[nH]c2cc1OC (centres undefined)
Result: 114

Q: Complete the entry with viability for Fc1cccc(NCc2cn3ccccc3n2)c1
Result: 81
